- Tested on: SF-295 CNS
- experiment.summary: NCI-60 one-dose screen, 48 h (100 = growth as untreated, 0 = no growth, -100 = all killed)
- test.settings: 10 µM unless noted
- Description: Cells are grown in 96 well plates and exposed to the test compound for 48 hours. Compounds are tested at a single concentration, which is 10^-5 M for most compounds. The reported endpoint is percent growth (GI% or GIPRCNT), where numbers from 0 - 100% represent growth inhibition, and numbers from -100% - 0 represent cell death. For example, a value of 40 represents 60% growth inhibition. A value of 0 means no net growth occurred over the course of the experiment. […]
The panel holds about 83,000 compounds, 20% with a hit somewhere; the sample as a whole holds those more often.
readout.kind: growth (%)
Answer in %, number only, no unit symbol.

In the examples that follow, each entry is paired with its recorded growth.
# smiles.entry, value.units, recorded.value
records = [
    ("NCCn1cc(-c2nc(-c3c[nH]c4ncccc34)cs2)c2cc(F)ccc21", "%", 96.7),
    ("Cc1ccc(-c2nc([P+](c3ccccc3)(c3ccccc3)c3ccccc3)c(N3C[C@H]4C[C@H](C3)c3cccc(=O)n3C4)o2)cc1", "%", 96.1),
    ("O=[N+]([O-])c1cccc(/C=N\\Nc2ccccc2)c1", "%", 49.2),
    ("C/C(Cc1ccc(Cl)cc1)=C(/c1ccc(Cl)cc1)c1ccc(OCCN2CCCC2)cc1", "%", 92.9),
    ("COc1ccc2c(c1)c(-c1nc(-c3c[nH]c4ncccc34)cs1)cn2C", "%", 86),
    ("O=C(/C(=C(\\C(=O)c1ccccc1)c1ccccc1)c1ccccc1)c1ccccc1", "%", 54.7),
]

Input line: What measured growth goes with Cc1csc(Nc2nc(-c3ccc(Cl)cc3)nc(C(Cl)(Cl)Cl)n2)n1 ?
Output line: 60.8

----------
- System: SF-539 CNS
- experiment.summary: NCI-60 one-dose screen, 48 h (100 = growth as untreated, 0 = no growth, -100 = all killed)
- test.settings: 10 µM unless noted
This is part of a sample that, as a whole, favours compounds with a hit. Of some 83,000 tested, about 20% had one in any assay.
Kindly return Yes if reported growth is no lower than 20%; return No if it is lower.

# smiles.entry, system, assigned.category
data = [
    ("CCCCCCCN(CCCCCCC)C(=N)c1ccnc2ccccc12", "SF-539 CNS", "No"),
    ("COc1cc2c(cc1-c1c(C)noc1C)ncc1nc(C3CCC(F)(F)CC3)n([C@@H](C)COC(F)F)c12", "SF-539 CNS", "Yes"),
    ("Cc1ccc(/C=C(\\C#N)c2cc3ccccc3n2C)cc1", "SF-539 CNS", "No"),
    ("Brc1ccc2[nH]cc(-c3nc(-c4c[nH]c5ncccc45)cs3)c2c1", "SF-539 CNS", "Yes"),
]

Turning now to a further compound:
Input line: Determine whether measured growth meets or exceeds 20% for CC1(C)CC[C@]2(C(=O)Nc3ccccn3)CC[C@]3(C)C(=CC[C@@H]4[C@@]5(C)C/C(=C/c6ccncc6)C(=O)C(C)(C)[C@@H]5CC[C@]43C)[C@@H]2C1
Output line: No

----------
- Test system: MDA-MB-435 melanoma
- experiment.summary: NCI-60 one-dose screen, 48 h (100 = growth as untreated, 0 = no growth, -100 = all killed)
- test.settings: 10 µM unless noted
The panel holds about 83,000 compounds, 20% with a hit somewhere; the sample as a whole holds those more often.
Could you mark each record Y if its growth falls strictly under 20%, and N if it equals or exceeds it?

Here's what some known entries look like.
# compound, assigned.category
rows = [
    ("COc1cc2ncnc(Nc3ccc(Oc4ccnc(C)c4)c(C)c3)c2cc1NC(=O)CC1CCSS1 (stereo not given)", "Y"),
    ("Cn1cc(-c2nc(-c3c[nH]c4ncccc34)cs2)c2cc(Br)ccc21", "N"),
    ("COC(=O)[C@]12CC[C@@H](C)[C@H](C)[C@@H]1C1=CC(=O)[C@@H]3[C@@]4(C)C[C@@H](O)[C@H](O)[C@@]5(C)COC(=C45)C[C@@]3(C)[C@]1(C)CC2", "Y"),
    ("N#CC1C(=N)Cc2ccccc2-c2ccccc21 (stereo not given)", "Y"),
    ("CCCCN1CCCCn2c1nc1c2c(=O)n(C)c(=O)n1C", "N"),
]

Input line: Answer whether the compound COc1cccc(-c2nn(-c3ccccc3)cc2-c2ccnc(NCCNS(=O)(=O)c3ccccc3)c2)c1 has growth strictly less than 20%
Output line: Y

Input line: Determine whether this compound shows growth lower than 20% (ties excluded): CCC1C(=O)COC1=O (stereo not given)
Output line: N

Input line: Check if growth falls below 20% for O=Cc1nc2ccccc2[nH]1 .
Output line: N

Input line: # strict comparison: is reported growth < 20%? input = Cc1ccsc1-c1ccc2c(c1)COC2(CCCN(C)C)c1ccc(F)cc1 (stereo not given)
Output line: Y

Input line: Please check: growth for O=c1[nH]c2c3ccncc3cc(-c3cccc(Cl)c3)c2c2cnccc12 , strictly under 20% or not?
Output line: N

----------
- Test system: UO-31 renal
- experiment.summary: NCI-60 one-dose screen, 48 h (100 = growth as untreated, 0 = no growth, -100 = all killed)
- test.settings: 10 µM unless noted
Compounds without any hit were thinned out: in the full panel of roughly 83,000, 20% have a hit.
readout.kind: growth (%)
Supply the numeric figure in %, leaving out any unit text.

# smiles.entry, growth, %
rows = [
    ("C[C@]12CC[C@@H]3c4ccc(O)cc4CC[C@H]3[C@@H]1C[C@H](O)[C@@H]2O", 78.2),
    ("Nc1ncnc2nc(Br)[nH]c12", 101),
    ("COc1ccc(-c2c(-c3nc4ccc(N5CCOCC5)cc4[nH]3)[nH]c(C)c2C(C)=O)cc1", 13.8),
]

Input line: Which growth value belongs to COC(=O)[C@]12CC[C@@H](C(=O)/C=C/c3cccnc3)[C@@H]1[C@H]1CC[C@@H]3[C@@]4(C)C/C(=C/c5cccnc5)C(=O)C(C)(C)[C@@H]4CC[C@@]3(C)[C@]1(C)CC2 ?
Output line: -100

Input line: Field request: growth | item: CC(=O)c1c(C)[nH]c(-c2nc3ccc(N4CCN(C)CC4)cc3[nH]2)c1-c1ccc(OCC2CCOCC2)cc1
Output line: 6.97

Input line: What value of measured growth is listed for Cc1cc(N(CCCNc2ccnc3cc(Cl)ccc23)Cc2ccco2)nc(Cl)n1 ?
Output line: 36.7

Input line: What value of growth has been recorded for this entry: O=C(/C=C/c1ccc2ccccc2c1)Nc1ncc(Cc2ccccc2)s1
Output line: 43.5

Input line: Given the entry NC1=NN(c2ccccc2)C(=O)/C1=C/c1ccc(Cl)cc1 , report its measured growth.
Output line: 78.3

Input line: For the molecule Nc1c(C(=O)Nc2c(Cl)cccc2Cl)sc2nc3c(cc12)C(=O)CCC3 , what growth is on record?
Output line: 48.3

----------
- System: SF-268 CNS
- experiment.summary: NCI-60 one-dose screen, 48 h (100 = growth as untreated, 0 = no growth, -100 = all killed)
- test.settings: 10 µM unless noted
This is part of a sample that, as a whole, favours compounds with a hit. Of some 83,000 tested, about 20% had one in any assay.
Form field: growth (one value per entry).
Report as a plain number; the unit % is understood.

Use these answered entries as a reference point.
# smiles.entry, recorded.value
rows = [
    ("Cn1c2c(c3ccc(Cl)cc31)-n1cccc1C2=O", 92.3),
    ("CC(=O)OCCCCCCn1c2ccccc2c2c3c(c4c5ccccc5n(C)c4c21)C(=O)N(O)C3=O", 70.2),
    ("Cc1ccc(S(=O)(=O)Nc2ccc(-c3cc(-c4cccc(F)c4)c(C#N)c(N)n3)cc2)cc1", 47),
    ("NC(N)=N/N=C/c1ccc(-c2ccc(-c3ccc(Cl)cn3)s2)cc1", 88.2),
]

Below: the item to evaluate.
Input line: SF-268 CNS / growth / Nc1c(C(=O)Nc2cccc(Br)c2)sc2nc3c(cc12)C(=O)CCC3 : value?
Output line: 62.6

----------
Recorded measurements of growth, one per entry
- Test system: SF-268 CNS
- experiment.summary: NCI-60 one-dose screen, 48 h (100 = growth as untreated, 0 = no growth, -100 = all killed)
- test.settings: 10 µM unless noted
This is part of a sample that, as a whole, favours compounds with a hit. Of some 83,000 tested, about 20% had one in any assay. Active and inactive are the calls of the source. How the source made its calls: active means growth percent below 10; inactive means the rest.

Answered cases to consult:
# molecule, system, recorded.value
measured = [
    ("O=C1c2ccccc2NC(c2cn(-c3ccccc3)nc2-c2cccnc2)N1Cc1ccccc1 (centres undefined)", "SF-268 CNS", "84.8% (inactive)"),
    ("COc1ccc2c(c1)C/C(=C\\c1cc(-c3cc(OC)c(OC)c(OC)c3)n[nH]1)C2=O", "SF-268 CNS", "100% (inactive)"),
    ("Oc1ccc(Nc2ccccc2)cc1", "SF-268 CNS", "88.2% (inactive)"),
]

Input line: Any idea what growth was measured for Cc1[c-]onc1C.Cc1[c-]onc1C.[Ag].[Ag].[NH-]S(=O)(=O)c1ccc(N=Nc2cc(N=Nc3ccc(S([NH-])(=O)=O)cc3)c3c(NC(=O)C(Cl)Cl)cccc3c2OC(=O)C(Cl)Cl)cc1 ?
Output line: 84.5% (inactive)

Input line: Please look up its growth: COc1ccc(/C=C/C(=O)NCC(C)O)cc1 (centres undefined)
Output line: 94% (inactive)

Input line: Report growth for COc1ccc2[nH]c(-c3ccc(Cl)cc3)cc(=O)c2c1 please.
Output line: 98.2% (inactive)
